Source of measurements: patent US9499502B2

system: soluble human BACE1 catalytic domain (Homo sapiens (Human))
Sequence (P56817 75-416): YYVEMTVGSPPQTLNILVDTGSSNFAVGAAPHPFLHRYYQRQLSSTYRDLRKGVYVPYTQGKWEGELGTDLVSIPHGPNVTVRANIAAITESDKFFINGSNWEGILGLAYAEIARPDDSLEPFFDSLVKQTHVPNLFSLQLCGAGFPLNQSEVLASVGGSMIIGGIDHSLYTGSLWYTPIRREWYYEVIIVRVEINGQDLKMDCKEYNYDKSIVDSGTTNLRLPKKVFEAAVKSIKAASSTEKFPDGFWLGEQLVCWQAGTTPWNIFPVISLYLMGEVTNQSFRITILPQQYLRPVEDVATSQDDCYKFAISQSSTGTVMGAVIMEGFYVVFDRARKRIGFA
assayMethodText: BACE1 HTRF FRET Assay
runParameters: read-out: BACE1 Ki; Ki calculated from IC50 using the Cheng-Prusoff equation
pKi: −log10 of the molar value.
measuredQuantity: pKi

Some molecules with recorded pKi:
>>> print(df.to_string())
                                 itemsmiles                                    system  measuredquantity  result
0  COc1ccc(C(=O)Nc2ccc(F)c([C@]3(C)CS(=O)(=O)[C@](C)(C(C)C)C(=N)N3)c2)nc1  soluble human BACE1 catalytic domain (Homo sapiens (Human))               pKi    6.59
1  COc1cnc(C(=O)Nc2ccc(F)c([C@]3(C)CS(=O)(=O)[C@](C)(C4CCC4)C(=N)N3)c2)cn1  soluble human BACE1 catalytic domain (Homo sapiens (Human))               pKi    6.30

(P) COc1ccc(C(=O)Nc2ccc(F)c([C@]3(C)CS(=O)(=O)[C@](C)(c4ccccn4)C(=N)N3)c2)nc1
(Q) CC1(C(=O)Nc2ccc(F)c([C@]3(C)CS(=O)(=O)C(C)(C)C(=N)N3)c2)CC1
(R) COc1ccc(C(=O)Nc2ccc(F)c([C@]3(C)CS(=O)(=O)C(C)(C)C(=N)N3)c2F)nc1
(S) COc1cnc(C(=O)Nc2cc(F)c(F)c([C@]3(C)CS(=O)(=O)C(C)(C)C(=N)N3)c2)cn1
Enquiry: Please produce an ascending ranking of these molecules based on pKi. A complete answer lists every label in the requested sequence.
Return: Q, P, R, S

====

system: purified human autoBACE-2 (Homo sapiens (Human), UniProt Q9Y5Z0)
Sequence (Q9Y5Z0 63-473): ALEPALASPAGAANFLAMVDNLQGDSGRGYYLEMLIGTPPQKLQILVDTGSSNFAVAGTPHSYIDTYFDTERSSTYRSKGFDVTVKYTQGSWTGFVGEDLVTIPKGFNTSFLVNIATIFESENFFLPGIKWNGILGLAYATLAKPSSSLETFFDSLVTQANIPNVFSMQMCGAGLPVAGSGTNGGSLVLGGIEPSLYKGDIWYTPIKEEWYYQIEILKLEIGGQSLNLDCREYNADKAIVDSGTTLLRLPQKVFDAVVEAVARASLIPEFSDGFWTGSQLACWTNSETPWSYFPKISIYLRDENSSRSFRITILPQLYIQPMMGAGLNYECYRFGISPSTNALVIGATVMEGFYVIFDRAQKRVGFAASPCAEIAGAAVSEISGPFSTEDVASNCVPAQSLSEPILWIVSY
assayMethodText: BACE-2 Assay (BACE-HTRF assay)
Type: biochemical
runParameters: Ki calculated from IC50 using the Cheng-Prusoff equation; read-out: BACE2 Ki
measuredQuantity: Ki

Field: example entries. Status: answers known.
>>> print(df.to_string())
                                   molecule           result
0  C[C@@]1(c2cccc(F)c2)C(=N)N[C@](C)(c2cc(NC(=O)c3ccc(C(F)(F)F)cn3)ccc2F)CS1(=O)=O  0.101 to 0.7 µM
1  CC1(C)C(=N)N[C@](C)(c2sc(-c3ccc(F)c(C(F)(F)F)c3)cc2Cl)CS1(=O)=O [Example 27a]         < 0.2 µM

Kindly review the next molecule as well.
Enquiry: Which Ki value belongs to CCC1C(=N)N[C@](C)(c2cc(NC(=O)c3ccc(F)cn3)ccc2F)CS1(=O)=O (stereo partly drawn) ?
Return: 0.009 µM

====

Collected pKi values appear next to each entry.
system: purified human autoBACE-2 (Homo sapiens (Human), UniProt Q9Y5Z0)
assayMethodText: BACE-2 Assay (BACE-HTRF assay)
Format: biochemical
runParameters: Ki calculated from IC50 using the Cheng-Prusoff equation; read-out: BACE2 Ki
pKi: −log10 of the molar value.

// worked examples, pKi included
>>> print(df.to_string())
                                   compound        result
0  COc1cnc(C(=O)Nc2cc(F)c(F)c([C@]3(C)CS(=O)(=O)C(C)(C)C(=N)N3)c2F)cn1 [Example 9ae]          7.16
1  C[C@@]1(c2cc(NC(=O)c3ccc(C(F)(F)F)cn3)ccc2F)CS(=O)(=O)[C@](C)(CC2CC2)C(=N)N1 [Example 9dl-b]  7.00 to 7.96
2  C[C@@]1(c2sc(-c3cccc(C#N)c3)cc2F)CS(=O)(=O)[C@@](C)(c2ccccc2F)C(=N)N1 [Example 27bs-a]          8.05
3  C[C@@]1(c2cc(NC(=O)c3ccc(C(F)(F)F)cn3)ccc2F)CS(=O)(=O)[C@@](C)(c2ccccn2)C(=N)N1 [Example 9cz-a]  7.00 to 7.96
4  COc1ccc(C(=O)Nc2ccc(F)c([C@]3(C)CS(=O)(=O)[C@](C)(C4CCC4)C(=N)N3)c2)nc1 [Example 9dx-b]  6.15 to 7.00

Enquiry: So what's the measured pKi for this one? CC1(C)C(=N)N[C@](C)(c2nc(NC(=O)c3cnc(Br)cn3)ccc2F)CS1(=O)=O [Example 9ck]
Return: ≥ 8.00
